# Tested on: urine volume, Na^+, K^+
# assay.summary: diuresis test in rats (urine volume, Na+, K+ excretion; dose/response, ED50)
# Type: in vivo, Male Wister rats
# applied.conditions: i.v.; rats
Some molecules, each annotated with its measured Na^+/K^+ quotient i.v..
The answer should be a number; do not append a unit.

Previously resolved entries follow.
[[record]]
molecule = "CN(C)CCc1ccc(-c2nc3c(N)nc(N)nc3nc2N)cc1"
recorded_value = 10

[[record]]
molecule = "CC(C)N(Cc1ccccc1)Cc1ccc(-c2nc3c(N)nc(N)nc3nc2N)cc1"
recorded_value = 7

[[record]]
molecule = "CC1CC(C)CN(CCCc2ccc(-c3nc4c(N)nc(N)nc4nc3N)cc2)C1 (stereo not drawn)"
recorded_value = 128

[[record]]
molecule = "CC1CC(C)CN(Cc2ccc(-c3nc4c(N)nc(N)nc4nc3N)cc2)C1 (stereo not drawn)"
recorded_value = 39

[[record]]
molecule = "Nc1nc(N)c2nc(-c3ccc(CN4CCCCC4)cc3)c(N)nc2n1"
recorded_value = 37

[[record]]
molecule = "CC1CCCC(C)N1Cc1ccc(-c2nc3c(N)nc(N)nc3nc2N)cc1 (stereo not drawn)"
recorded_value = 21

[[record]]
molecule = "CC1CCN(Cc2ccc(-c3nc4c(N)nc(N)nc4nc3N)cc2)CC1"
recorded_value = 27

[[record]]
molecule = "CN(C)CCCc1ccc(-c2nc3c(N)nc(N)nc3nc2N)cc1"
recorded_value = 12

[[record]]
molecule = "Nc1nc(N)c2nc(-c3ccc(CN4CCC(Cc5ccccc5)CC4)cc3)c(N)nc2n1"
recorded_value = 17

[[record]]
molecule = "CN(C)Cc1ccc(-c2nc3c(N)nc(N)nc3nc2N)cc1"
recorded_value = 9


**Query** # Na^+/K^+ quotient i.v. lookup, item CC1CCCC(C)N1CCCc1ccc(-c2nc3c(N)nc(N)nc3nc2N)cc1 (stereo not drawn)
**Result** 170

**Query** # Na^+/K^+ quotient i.v. lookup, item Nc1nc(N)c2nc(-c3ccccc3)c(N)nc2n1 [Triamterene, 2,4,7-triamino-6-phenylpteridine, reference compound]
**Result** 8

====

# assay.summary: resorption rate from renal recovery following p.o. and i.v. administration
# Assay type: in vivo, Male Wister rats
# applied.conditions: rat, urine, po; quotient of urinary recovery p.o./i.v.; rats
So basically: Fa at 20% or higher? That is Y. Lower than 20%? That is N.

Before answering, review these 2 worked examples.
[[record]]
molecule = "Nc1nc(N)c2nc(-c3ccc(CN4CCCCC4)cc3)c(N)nc2n1"
assigned_class = "N"

[[record]]
molecule = "CC1CC(C)CN(Cc2ccc(-c3nc4c(N)nc(N)nc4nc3N)cc2)C1 (centres unmarked)"
assigned_class = "Y"


**Query** Entry CC1CCCC(C)N1Cc1ccc(-c2nc3c(N)nc(N)nc3nc2N)cc1 (centres unmarked) : is its Fa no less than 20%?
**Result** Y

**Query** Entry CC1CC(C)CN(CCCc2ccc(-c3nc4c(N)nc(N)nc4nc3N)cc2)C1 (centres unmarked) : is its Fa no less than 20%?
**Result** N

**Query** Entry `CN(C)CCCc1ccc(-c2nc3c(N)nc(N)nc3nc2N)cc1` : is its Fa no less than 20%?
**Result** N

**Query** Entry `CC1CCN(Cc2ccc(-c3nc4c(N)nc(N)nc4nc3N)cc2)CC1` : is its Fa no less than 20%?
**Result** Y

**Query** Entry `CN(C)Cc1ccc(-c2nc3c(N)nc(N)nc3nc2N)cc1` : is its Fa no less than 20%?
**Result** N

**Query** Entry `Nc1nc(N)c2nc(-c3ccc(CN4CCC(Cc5ccccc5)CC4)cc3)c(N)nc2n1` : is its Fa no less than 20%?
**Result** N

**Query** Entry `CN(C)CCc1ccc(-c2nc3c(N)nc(N)nc3nc2N)cc1` : is its Fa no less than 20%?
**Result** N

**Query** Entry CC1CCCC(C)N1CCCc1ccc(-c2nc3c(N)nc(N)nc3nc2N)cc1 (centres unmarked) : is its Fa no less than 20%?
**Result** N
